- protocolSummary: logP by HPLC on reversed-phase columns (C18), EEC Directive 79/831 Annex V.A8
- Type: physicochemical
- details: pH 2.7
Task for the reader: assign each of the following compounds its reported chromatographic logP.
Answers are plain numbers.

Recorded results for 3 compounds are shown here.
# compound, measurementType, endpointResult
rows = [
    ("Cc1cc(Oc2snc(-c3ccccc3)c2Cl)c(C)cc1N", "chromatographic logP", 4.22),
    ("CCCN(C)/C=N/c1cc(C)c(Oc2snc(C(C)(C)C)c2C#N)cc1C [No. 4]", "chromatographic logP", 2.19),
    ("CCN(C)/C=N/c1cc(Cl)c(Oc2snc(-c3ccccc3)c2Br)cc1C [No. 54]", "chromatographic logP", 2.26),
]

Hi there! I need chromatographic logP for each item below, if you can.
1. CCN(C)/C=N/c1cc(C)c(Oc2snc(Cc3ccc(Cl)cc3)c2C#N)cc1C [No. 27]
2. CCN(C)/C=N/c1cc(C)c(Oc2cc(-c3ccccc3)ns2)cc1C [No. 43]
3. N#Cc1c(Cc2ccc(Cl)cc2)nsc1Cl

Response:
2.39
2.11
3.87
